# Study Target: Sterol O-acyltransferase 1 (Homo sapiens, UniProt P35610)
# Sequence (P35610 whole entry): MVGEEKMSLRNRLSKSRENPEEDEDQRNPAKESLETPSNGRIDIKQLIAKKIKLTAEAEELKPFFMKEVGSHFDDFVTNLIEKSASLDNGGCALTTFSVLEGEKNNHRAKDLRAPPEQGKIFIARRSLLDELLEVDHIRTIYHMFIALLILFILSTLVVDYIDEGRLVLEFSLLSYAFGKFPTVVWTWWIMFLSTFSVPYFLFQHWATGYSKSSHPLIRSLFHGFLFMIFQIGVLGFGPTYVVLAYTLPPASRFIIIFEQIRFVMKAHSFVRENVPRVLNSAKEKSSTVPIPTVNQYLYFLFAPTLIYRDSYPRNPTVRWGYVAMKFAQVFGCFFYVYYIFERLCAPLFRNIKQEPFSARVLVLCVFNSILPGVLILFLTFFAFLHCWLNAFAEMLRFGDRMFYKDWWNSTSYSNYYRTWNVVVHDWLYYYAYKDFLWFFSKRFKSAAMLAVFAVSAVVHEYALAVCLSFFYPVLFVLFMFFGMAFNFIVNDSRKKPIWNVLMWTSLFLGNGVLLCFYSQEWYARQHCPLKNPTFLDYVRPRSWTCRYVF
# Method Summary: Inhibition of ACAT-mediated esterified cholesterol accumulation in human THP1 cells exposed to acetyl-LDL after differentiation assessed as effect on foam cell formation
# Format: cell-based, THP-1
Outcome Measure: IC50 (nM)

CCCCCCCCN1CCc2c(C)c(CC(=O)O)c(C)c(NC(=O)C(C)(C)C)c21 : 300

* * *

# Method Summary: Distribution coefficient, log D at pH 7.0
# Assay type: physicochemical
# Measurement Parameters: octanol/water
Property: logD; scope: individual molecules
Outcome Measure: logD

CCCCCCCCN1CCc2c(C)c(CN)c(C)c(NC(=O)C(C)(C)C)c21.Cl.Cl : 2.3
CCCCCCCCN1CCc2c(C)cc(C)c(NC(=O)C(C)(C)CCC(=O)O)c21.Cl : 3
Cc1cc(C)c(NC(=O)C(C)(C)C)c2c1CCN2CCCCCCCCCC(=O)O.Cl : 2.8
CCCCCCCCN1CCc2c(C)c(CC(=O)O)c(C)c(NC(=O)C(C)(C)C)c21.CCCCCCCCN1CCc2c(C)c(CC(=O)O)c(C)c(NC(=O)C(C)(C)C)c21.O=S(=O)(O)O [PACTIMIBE SULFATE] : 2.9
CCCCCCCCN1CC(CCC(=O)O)c2c(C)cc(C)c(NC(=O)C(C)(C)C)c21.Cl (configuration not stated) : 3.5
CCCCCCCCN1CCc2c(C)cc(C)c(NC(=O)C(C)(C)C)c21.Cl : 6.2
CCCCCCCCN1CCc2c(C)c(Cc3nnn[nH]3)c(C)c(NC(=O)C(C)(C)C)c21 : 3.7
